- Test system: NCI-H460 lung
- Assay Explanation: NCI-60 one-dose screen, 48 h (100 = growth as untreated, 0 = no growth, -100 = all killed)
- Conditions Used: 10 µM unless noted
About 83,000 compounds went through this panel and 20% of them were active in at least one assay; those are over-represented in the sample as a whole.
Metric: growth (%)
# value in %; strip the unit string

See these solved cases before continuing.
[[record]]
molecule = "CCOC(=O)C1=C(C)NC(=O)NC1c1cc(=O)oc2ccc(C)cc12 (stereo unspecified)"
measurement_target = "NCI-H460 lung"
metric = "growth"
recorded_value = 108

[[record]]
molecule = "CNC(=O)c1cccc2cc(Oc3ccnc4cc(OCC5(N)CC5)c(OC)cc34)ccc12"
measurement_target = "NCI-H460 lung"
metric = "growth"
recorded_value = 56

[[record]]
molecule = "O=C(Nc1cccc(Cl)c1)Nc1ncc(CCNc2ncnc3ccsc23)s1"
measurement_target = "NCI-H460 lung"
metric = "growth"
recorded_value = 20.1

[[record]]
molecule = "CCN1CCN(c2cc(C)nc(N(CCCNc3ccnc4cc(Cl)ccc34)Cc3cccs3)n2)CC1"
measurement_target = "NCI-H460 lung"
metric = "growth"
recorded_value = 5.44

[[record]]
molecule = "COc1ccc(Cl)c(Nc2nc3ccccc3nc2NS(=O)(=O)c2cccc(NC(=O)C(C)(C)N)c2)c1"
measurement_target = "NCI-H460 lung"
metric = "growth"
recorded_value = 38


Param item: `CC(C)[C@@H]1CC[C@]2(CO2)[C@@H]2C(=O)OCC(C(=O)O)=C[C@H]21` ; param system: NCI-H460 lung; output growth: 7.86

Param item: `Ic1ccccc1-c1ccccc1` ; param system: NCI-H460 lung; output growth: 100

Param item: CCCC(=O)OCC1OC(n2cnc3c(=S)nc[nH]c32)C(OC(=O)CCC)C1OC(=O)CCC (stereo unspecified) ; param system: NCI-H460 lung; output growth: 54.9

Param item: `COc1cc(Nc2ncc3c(n2)-c2ccc(Cl)cc2C(c2c(F)cccc2OC)=NC3)ccc1C(=O)O` ; param system: NCI-H460 lung; output growth: 30.7

Param item: CC1(C)NC(=O)c2[nH]c3c(Cl)c(Cl)ccc3c2C1C#N (stereo unspecified) ; param system: NCI-H460 lung; output growth: 88.7

Param item: `NC1(C(=O)N[C@@H](CCO)c2ccc(Cl)cc2)CCN(c2ncnc3[nH]ccc23)CC1` ; param system: NCI-H460 lung; output growth: 24.6

Param item: `Cn1nccc1Nc1nccc(-c2ccn([C@H](CO)c3ccc(Cl)c(F)c3)c(=O)c2)n1` ; param system: NCI-H460 lung; output growth: 99.5

----------
- Test system: NCI/ADR-RES ovarian
- Assay Explanation: NCI-60 one-dose screen, 48 h (100 = growth as untreated, 0 = no growth, -100 = all killed)
- Conditions Used: 10 µM unless noted
Compounds without any hit were thinned out: in the full panel of roughly 83,000, 20% have a hit.
Reported growth by item:
# value in %; strip the unit string

See these solved cases before continuing.
[[record]]
molecule = "O=C1NC(=O)/C(=C/c2ccc3nccc(-c4ccncc4)c3c2)S1"
recorded_value = -14.6

[[record]]
molecule = "c1cc[n+](Cc2c3ccccc3cc3c2ccc2ccccc23)cc1"
recorded_value = 99.3

[[record]]
molecule = "CC[n+]1c(/C=C/C=C2\\N(C)c3ccccc3C2(C)C)sc2ccccc21"
recorded_value = 30.4

[[record]]
molecule = "CO[C@@H](C(=O)N1Cc2[nH]nc(NC(=O)c3ccc(N4CCN(C)CC4)cc3)c2C1)c1ccccc1"
recorded_value = 81.7

[[record]]
molecule = "O=C(Cc1ccc(-c2ccc(OCCN3CCOCC3)cc2)cn1)NCc1ccccc1"
recorded_value = 0.0856


Note to self: growth recorded for `O=C(c1ccc(/C=C/c2n[nH]c3ccccc23)cc1)N1CCNCC1` was 82.1

Note to self: growth recorded for `Cc1ccc(-n2nc(C(C)(C)C)cc2NC(=O)NCc2cc(F)ccc2Oc2ccc3c(cnn3CCO)c2)cc1` was 21.3

Note to self: growth recorded for COc1cc2c(c(OC)c1)C1c3ccccc3NC(=O)N1CC2 (stereo not given) was 1.85

Note to self: growth recorded for `Cc1ncc(-c2ccnc(Nc3ccc(S(C)(=O)=O)cc3)n2)n1C(C)C` was 1.79

Note to self: growth recorded for `Cc1cnc(Nc2ccc(OCCN3CCCC3)cc2)nc1Nc1cccc(S(=O)(=O)NC(C)(C)C)c1` was 30.5

----------
- Tested on: SW-620 colon
- Assay Explanation: NCI-60 one-dose screen, 48 h (100 = growth as untreated, 0 = no growth, -100 = all killed)
- Conditions Used: 10 µM unless noted
About 83,000 compounds went through this panel and 20% of them were active in at least one assay; those are over-represented in the sample as a whole.
Reported growth by item:
# value in %; strip the unit string

See these solved cases before continuing.
[[record]]
compound = "CSC1=C(N)C(=O)c2[nH]cc(CO)c2C1=N"
metric = "growth"
recorded_value = -56.2

[[record]]
compound = "COc1cc(OC)c(C(=O)/C=C/c2cc3c(cc2OCc2ccccc2)OC(C)(C)CC3)cc1CC=C(C)C"
metric = "growth"
recorded_value = 25.5

[[record]]
compound = "CO[C@@H](C)Cn1c(=O)n(C)c2cnc3ccc(-c4cncc(C(C)(C)O)c4)cc3c21"
metric = "growth"
recorded_value = 9.31


Param item: `C[C@H](NC(=O)c1c(N)nn2cccnc12)c1cc2cccc(C#Cc3cnn(C)c3)c2c(=O)n1-c1ccccc1` ; param system: SW-620 colon; output growth: 13.4

Param item: `CC#CC(=O)N1CCC[C@H]1c1nc(-c2ccc(C(=O)Nc3ccccn3)cc2)c2c(N)nccn12` ; param system: SW-620 colon; output growth: 112

----------
- Test system: PC-3 prostate
- Assay Explanation: NCI-60 one-dose screen, 48 h
- Conditions Used: 10 µM unless noted
- Method: Growth inhibition of the PC-3 human tumor cell line is measured as a screen for anti-cancer activity. Cells are grown in 96 well plates and exposed to the test compound for 48 hours. Compounds are tested at a single concentration, which is 10^-5 M for most compounds. The reported endpoint is percent growth (GI% or GIPRCNT), where numbers from 0 - 100% represent growth inhibition, and numbers from -100% - 0 represent cell death. For example, a value of 40 represents 60% growth inhibition. […]
The panel holds about 83,000 compounds, 20% with a hit somewhere; the sample as a whole holds those more often. Active and inactive are the calls of the source. Rule for the calls: active = growth percent below 10; inactive = the rest.
Hi! Could you answer with just one of these? active, inactive

[[record]]
molecule = "COC(=O)c1ccc2c(C(=Nc3ccc(N(C)C(=O)CN4CCN(C)CC4)cc3)c3ccccc3)c(O)[nH]c2c1"
qualitative_label = "inactive"

[[record]]
molecule = "Cn1cnc2c(F)c(Nc3ccc(Br)cc3F)c(C(=O)NOCCO)cc21"
qualitative_label = "inactive"

[[record]]
molecule = "C=CC[n+]1c(/C=C2\\Sc3ccccc3N2C)sc(-c2ccccc2)c1-c1ccccc1"
qualitative_label = "inactive"

[[record]]
molecule = "Cc1cn(-c2cc(NC(=O)c3ccc(C)c(Nc4nccc(-c5cccnc5)n4)c3)cc(C(F)(F)F)c2)cn1"
qualitative_label = "inactive"

[[record]]
molecule = "COC(=O)[C@@H](NC(=O)[C@@H](OC)[C@@H]1Cc2cc3cc(OC4CC(OC5CC(O)C(O)C(C)O5)C(O)C(C)O4)c(C)c(O)c3c(O)c2C(=O)[C@H]1OC1CC(OC2CC(OC3CC(C)(O)C(O)C(C)O3)C(O)C(C)O2)C(O)C(C)O1)C(C)C (some centres not stated)"
qualitative_label = "inactive"

[[record]]
molecule = "O=C1C=CC2(NN=C(c3ccccc3)N2c2cccc(Cl)c2)c2cccc(O)c21 (configuration not stated)"
qualitative_label = "inactive"


From here, focus on the item given below.
Query: Hi, sorry to bother you, what did the test record for `COCc1c(-c2ccc(NC(=O)Nc3cc(C(F)(F)F)ccc3F)c(F)c2)c2c(N)ncnn2c1CN1CCOCC1` ?
Reply: active

----------
- Tested on: BT-549 breast
- Assay Explanation: NCI-60 one-dose screen, 48 h (100 = growth as untreated, 0 = no growth, -100 = all killed)
- Conditions Used: 10 µM unless noted
- Description: Growth inhibition of the BT-549 human tumor cell line is measured as a screen for anti-cancer activity. Cells are grown in 96 well plates and exposed to the test compound for 48 hours. Compounds are tested at a single concentration, which is 10^-5 M for most compounds. The reported endpoint is percent growth (GI% or GIPRCNT), where numbers from 0 - 100% represent growth inhibition, and numbers from -100% - 0 represent cell death. For example, a value of 40 represents 60% growth inhibition. […]
This is part of a sample that, as a whole, favours compounds with a hit. Of some 83,000 tested, about 20% had one in any assay.
Mark Criterion met for growth under 40%, Criterion not met if at or over.

Example entries begin here.
[[record]]
compound_structure = "Clc1ccc(/C=C/c2cc(N3CCOCC3)c3cc(Cl)c(Cl)cc3n2)cc1"
qualitative_label = "Criterion met"

[[record]]
compound_structure = "CC(C)(C)c1ccc(Cn2cc(CSc3nc4ccccc4s3)nn2)cc1"
qualitative_label = "Criterion not met"

[[record]]
compound_structure = "COC(=O)[C@]12CC[C@@H](C)[C@H](C)[C@@H]1C1=CC[C@@H]3[C@@]4(C)C(c5cnco5)=C[C@@](C)(CO)C4=CC[C@@]3(C)[C@]1(C)CC2"
qualitative_label = "Criterion not met"

[[record]]
compound_structure = "CC(=O)Oc1ccccc1C(=O)N=C1[Se]CCN1C(=O)c1ccccc1OC(C)=O"
qualitative_label = "Criterion met"

[[record]]
compound_structure = "NC(=O)c1n[nH]n2c1nc(=O)c1c3c(sc12)CCCC3"
qualitative_label = "Criterion not met"


Query: Does the reported growth of the following compound sit strictly below 40%? `NC1(c2ccc(-c3nc4ccn5c(=O)[nH]nc5c4cc3-c3ccccc3)cc2)CCC1`
Reply: Criterion met

Query: Does the reported growth of the following compound sit strictly below 40%? `CCN(CC)CCN1C(=O)c2cccc3c(-c4ccc5c(c4)ncn5C4CCCCC4)ccc(c23)C1=O`
Reply: Criterion met

Query: Does the reported growth of the following compound sit strictly below 40%? `COc1cc(CCc2cc(NC(=O)c3ccc(N4C[C@@H](C)N[C@@H](C)C4)cc3)n[nH]2)cc(OC)c1`
Reply: Criterion not met

Query: Does the reported growth of the following compound sit strictly below 40%? `CC(C)CC(=O)Nc1n[nH]c2c1CN(C(=O)C1CCN(C)CC1)C2(C)C`
Reply: Criterion met
